# assay.summary: chemical genetic growth profiling, strain panel (AID 1159580);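 further: tested at 20 µM; growth read once vehicle control cultures reached saturation at 30 °C; lower values mean less growth of the strain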
# experimental.parameters: S. cerevisiae deletion strains, growth OD, locus YLR320W, strain mms22, stronger effect = lower value
In all, about 5,500 compounds went through this assay and about 2,000 (36%) were called active. Inconclusive results (about 18%) are left out. The list shows a part of the results.
Friendly reminder: normalized growth below 1 is true, at or above is false.

- molecule: "Cc1ccc(C(=O)Nc2ccc(S(=O)(=O)O)c3cc(S(=O)(=O)O)cc(S(=O)(=O)O)c23)cc1NC(=O)c1cccc(NC(=O)Nc2cccc(C(=O)Nc3cc(C(=O)Nc4ccc(S(=O)(=O)O)c5cc(S(=O)(=O)O)cc(S(=O)(=O)O)c45)ccc3C)c2)c1"
  group: "false"
- molecule: "CC[C@@H](C(=O)C(C)[C@@H](O)[C@H](C)CCc1ccc(C)c(O)c1C(=O)O)C1OC(CC)(C2CC[C@](O)(CC)[C@H](C)O2)C[C@@H]1C (some centres not stated)"
  group: "false"
- molecule: "c1ccc2c(c1)sc1ccccc12"
  group: "true"
- molecule: "CCCc1cc(C(N)=S)ccn1"
  group: "true"
